viability, T/C by entry:
# Tested on: 292921-168-R-J2-PDC KRAS tumor spheroid viability
# protocol.summary: Anticancer human tumor 292921-168-R-J2-PDC patient-derived pancreatic carcinoma cell line growth inhibition [KRAS2]
# stated.conditions: second compound 1 µM; first compound 0.1 µM; hits give low values; spheroids with HUVEC and MSC
assay.endpoint: viability, T/C (%)

# compound, reported.measurement
rows = [
    ("COc1cc2nccc(Oc3ccc(NC(=O)C4(C(=O)Nc5ccc(F)cc5)CC4)cc3)c2cc1OC + CC1OCC2(CCN(c3cnc(Sc4ccnc(N)c4Cl)c(N)n3)CC2)C1N", 45.7),
    ("CC(C)n1nc(-c2ccc3oc(N)nc3c2)c2c(N)ncnc21 + COc1cc2nc(C)nc(NC(C)c3cc(N)cc(C(F)(F)F)c3)c2cc1OC1CCOC1", 21.2),
    ("CC(C)n1nc(-c2ccc3oc(N)nc3c2)c2c(N)ncnc21 + C=CC(=O)N1CCN(c2nc(OCC3CCCN3C)nc3c2CCN(c2cccc4cccc(C)c24)C3)CC1CC#N", 13.8),
    ("CC1(C)CCC(CN2CCN(c3ccc(C(=O)NS(=O)(=O)c4ccc(NCC5CCOCC5)c([N+](=O)[O-])c4)c(Oc4cnc5[nH]ccc5c4)c3)CC2)=C(c2ccc(Cl)cc2)C1 + CNCc1ccccc1-c1csc(C(C)Nc2nc(C)nc3cc(OC)c(OC)cc23)c1", 62.5),
    ("COc1cc2nccc(Oc3ccc(NC(=O)C4(C(=O)Nc5ccc(F)cc5)CC4)cc3)c2cc1OC + C=CC(=O)N1CCN(c2nc(=O)n(-c3c(C)ccnc3C(C)C)c3nc(-c4c(O)cccc4F)c(F)cc23)C(C)C1", 108),
]

* * *

# Test system: 292921-168-R-J2-PDC KRAS tumor spheroid viability
# protocol.summary: Anticancer human tumor 292921-168-R-J2-PDC cell line growth inhibition [KRAS2];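 note: drug exposure lasted seven days after spheroids formed for three days; percent of DMSO vehicle control viability which is 100%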
# stated.conditions: second compound 10 µM; first compound 0.316 µM; hits give low values; spheroids with HUVEC and MSC
# From the text: Multicellular complex tumor spheroid response to RAS pathway inhibitors in combination with a targeted agents in patient-derived cell lines with oncogenic KRAS variants from multiple cancer types A high-throughput screen of multi-cell type tumor spheroids was designed to identify active combinations of targeted small molecules and KRAS pathway inhibitors. […] Compounds. […] If the clinical Cmax for an agent had not been determined, the highest concentration tested was 10 microM. […]
viability, T/C by entry:
assay.endpoint: viability, T/C (%)

# compound, study.target, reported.measurement
records = [
    ("COC(=O)c1ccc2c(C(=Nc3ccc(N(C)C(=O)CN4CCN(C)CC4)cc3)c3ccccc3)c(O)[nH]c2c1 + COc1cc2nc(C)nc(NC(C)c3cc(N)cc(C(F)(F)F)c3)c2cc1OC1CCOC1", "292921-168-R-J2-PDC KRAS tumor spheroid viability", 22.8),
    ("COc1cc(Nc2ncc3c(n2)-c2ccc(Cl)cc2C(c2c(F)cccc2OC)=NC3)ccc1C(=O)O + CNCc1ccccc1-c1csc(C(C)Nc2nc(C)nc3cc(OC)c(OC)cc23)c1", "292921-168-R-J2-PDC KRAS tumor spheroid viability", 0.13),
    ("CCNC(=O)CC1N=C(c2ccc(Cl)cc2)c2cc(OC)ccc2-n2c(C)nnc21 (stereo not drawn) + CC1OCC2(CCN(c3cnc(Sc4ccnc(N)c4Cl)c(N)n3)CC2)C1N", "292921-168-R-J2-PDC KRAS tumor spheroid viability", 28.4),
]

// data source = PubChem BioAssay AID1963870
